For each of the compounds below, state its pIC50.
Molecular target: HLA A*3001 (Homo sapiens, UniProt P04439, D140H/D185E/E176W/F33S/G80R/H175R/K168Q/R138E/R41S)
Sequence (P04439 25-365 limits assumed, stated change not applied): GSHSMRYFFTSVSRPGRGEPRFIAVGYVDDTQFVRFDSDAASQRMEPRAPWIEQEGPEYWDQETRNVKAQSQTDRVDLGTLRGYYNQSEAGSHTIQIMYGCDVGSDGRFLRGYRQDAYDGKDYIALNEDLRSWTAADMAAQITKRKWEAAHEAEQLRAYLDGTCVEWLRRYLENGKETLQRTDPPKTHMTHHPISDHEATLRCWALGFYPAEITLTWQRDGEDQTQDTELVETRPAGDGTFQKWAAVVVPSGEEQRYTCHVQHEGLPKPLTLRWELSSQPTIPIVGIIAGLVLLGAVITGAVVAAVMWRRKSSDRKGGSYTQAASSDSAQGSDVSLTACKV
Assay: biochemical
Where a SMILES comes first, the peptide text is derived from it.
Reminder that pIC50 means the negative base-10 logarithm of the concentration expressed in mol/L.

**Q:** Entry CC(C)C[C@H](NC(=O)[C@H](CO)NC(=O)[C@H](Cc1c[nH]cn1)NC(=O)[C@H](CC(C)C)NC(=O)[C@H](CCCNC(=N)N)NC(=O)[C@H](C)NC(=O)[C@H](CO)NC(=O)[C@@H](NC(=O)[C@@H](N)Cc1c[nH]cn1)[C@@H](C)O)C(=O)O [3102.0250] (H-HTSARLHSL-OH) has what pIC50?
**A:** 8.39

**Q:** Try CC[C@H](C)[C@H](NC(=O)[C@H](CCCCN)NC(=O)[C@@H](NC(=O)[C@@H](N)CCCCN)[C@@H](C)O)C(=O)N[C@@H](CC(=O)O)C(=O)N[C@H](C(=O)N[C@H](C(=O)N[C@@H](Cc1ccccc1)C(=O)N[C@@H](C)C(=O)O)[C@@H](C)CC)[C@@H](C)CC [3102.0285] (H-KTKIDIIFA-OH) next.
**A:** 8.00

**Q:** Ok, now CSCC[C@H](N)C(=O)N[C@@H](CCCNC(=N)N)C(=O)N[C@@H](CCCNC(=N)N)C(=O)N[C@@H](CCC(=O)O)C(=O)N[C@@H](CCCNC(=N)N)C(=O)N[C@@H](C)C(=O)N[C@@H](C)C(=O)N[C@@H](Cc1ccc(O)cc1)C(=O)N[C@H](C(=O)O)C(C)C [3102.0232] (H-MRRERAAYV-OH)
**A:** 7.66

**Q:** Query CC(C)[C@H](NC(=O)[C@@H](N)CCCNC(=N)N)C(=O)N[C@@H](Cc1c[nH]cn1)C(=O)N[C@@H](CC(=O)O)C(=O)N[C@H](C(=O)N[C@@H](CC(N)=O)C(=O)N[C@@H](C)C(=O)N[C@H](C(=O)N[C@@H](CCCCN)C(=O)O)[C@@H](C)O)[C@@H](C)O [3102.0197] (H-RVHDTNATK-OH) next
**A:** 8.11

**Q:** Also, CC[C@H](C)[C@H](NC(=O)[C@H](CCC(N)=O)NC(=O)[C@@H](NC(=O)[C@@H](NC(=O)[C@H](C)NC(=O)[C@H](CCCCN)NC(=O)[C@@H](NC(=O)[C@@H](N)[C@@H](C)O)[C@@H](C)O)[C@@H](C)O)[C@@H](C)O)C(=O)N[C@@H](C)C(=O)O [3102.0270] (H-TTKATTQIA-OH) please.
**A:** 8.19

**Q:** Thanks! And CC(C)C[C@H](NC(=O)[C@H](CC(C)C)NC(=O)[C@H](CCCNC(=N)N)NC(=O)[C@@H](NC(=O)[C@@H](N)CO)C(C)C)C(=O)N[C@@H](CC(N)=O)C(=O)N[C@@H](Cc1ccc(O)cc1)C(=O)N[C@@H](Cc1ccccc1)C(=O)N[C@@H](CCCCN)C(=O)O [3102.0158] (H-SVRLLNYFK-OH) ?
**A:** 9.62

**Q:** What about this compound? CC(C)C[C@H](NC(=O)[C@H](CC(N)=O)NC(=O)[C@H](CCC(N)=O)NC(=O)[C@H](CC(N)=O)NC(=O)[C@H](CO)NC(=O)[C@H](CC(C)C)NC(=O)[C@H](Cc1c[nH]cn1)NC(=O)[C@@H](NC(=O)[C@@H](N)Cc1c[nH]cn1)[C@@H](C)O)C(=O)O [3102.0108] (H-HTHLSNQNL-OH)
**A:** 8.24
